Measured values drawn from ChEMBL document CHEMBL3734684 for this set.

System: MDCK
Experiment: Permeability from apical to basolateral side in MDCK cells at 1 uM
Type: ADME, cell-based, Canis lupus familiaris
Settings: dog
This section presents molecules with their documented permeability values.
value-type: permeability (×10⁻⁶ cm/s)

>  <molecule>
CC(C)(C)n1nnc2c1CCC(n1cnc(-c3ccc(F)cc3)n1)C2 (stereo not drawn)

>  <target-desc>
MDCK

>  <value-type>
permeability

>  <assay-value>
46

$$$$
>  <molecule>
CC(C)(C)n1nnc2c1CCC(c1nc(-c3ccc(F)cc3)no1)C2 (stereo not drawn)

>  <target-desc>
MDCK

>  <value-type>
permeability

>  <assay-value>
42

$$$$
>  <molecule>
CC(C)(C#N)n1nnc2c1CCC(c1nc(-c3ccc(F)cc3)no1)C2 (stereo not drawn)

>  <target-desc>
MDCK

>  <value-type>
permeability

>  <assay-value>
43

$$$$

====

This section presents compounds with their documented half-life values.
Assay: Half life in Sprague-Dawley rat at 3 mg/kg, po
Format: ADME, organism-based
Conditions: in vivo

>  <compound>
CC(C)(C)n1nnc2c1CCC(n1cnc(-c3ccc(F)cc3)n1)C2 (stereo not drawn)

>  <reading-unit>
h

>  <half-life>
2.9

$$$$
>  <compound>
CC(C)(C#N)n1nnc2c1CCC(c1nc(-c3ccc(F)cc3)no1)C2 (stereo not drawn)

>  <reading-unit>
h

>  <half-life>
7

$$$$
>  <compound>
CC(C)(C)n1nnc2c1CCC(c1nc(-c3ccc(F)cc3)no1)C2 (stereo not drawn)

>  <reading-unit>
h

>  <half-life>
6.5

$$$$

====

Experiment: Volume of distribution at steady state in Sprague-Dawley rat at 0.25 mg/kg, iv
Assay type: ADME, organism-based
Settings: in vivo, read-out: Vdss
value-type: Vd (L/kg)

>  <compound>
CC(C)(C#N)n1nnc2c1CCC(c1nc(-c3ccc(F)cc3)no1)C2 (stereo unspecified)

>  <value-type>
Vd

>  <reading-unit>
L/kg

>  <assay-value>
2.5

$$$$

====

Biological target: Metabotropic glutamate receptor 5 (Rattus norvegicus)
Assay: Positive allosteric modification of mGlu5 receptor in rat cortical astrocytes assessed as maximal leftward shift in the EC50 of glutamate induced response upto 25 uM
Type: cell-based
value-type: fold change (FC)

>  <compound>
CC(C)(C)n1nnc2c1CCC(c1nc(-c3ccc(C#N)cc3)no1)C2 (stereo not given)

>  <assay-value>
6

$$$$
>  <compound>
CC(C)(C)n1nnc2c1CCC(c1nc(-c3ccc(F)cc3)no1)C2 (stereo not given)

>  <assay-value>
4

$$$$
>  <compound>
Fc1ccc(-c2noc(C3CCc4c(nnn4-c4ccc(F)cc4)C3)n2)cc1 (stereo not given)

>  <assay-value>
3

$$$$
>  <compound>
CC(C)(C#N)n1nnc2c1CCC(c1nc(-c3ccc(F)cc3)no1)C2 (stereo not given)

>  <assay-value>
3

$$$$
>  <compound>
CC(C)(C)n1nnc2c1CCC(n1cnc(-c3ccc(F)cc3)n1)C2 (stereo not given)

>  <assay-value>
3

$$$$

====

Target: Metabotropic glutamate receptor 5 (Homo sapiens)
Assay: Positive allosteric modification of human recombinant mGlu5 receptor expressed in U2OS cells assessed as potentiation of glutamate-induced Ca2+ flux in presence of EC20 glutamate
Sequence (P41594 whole entry): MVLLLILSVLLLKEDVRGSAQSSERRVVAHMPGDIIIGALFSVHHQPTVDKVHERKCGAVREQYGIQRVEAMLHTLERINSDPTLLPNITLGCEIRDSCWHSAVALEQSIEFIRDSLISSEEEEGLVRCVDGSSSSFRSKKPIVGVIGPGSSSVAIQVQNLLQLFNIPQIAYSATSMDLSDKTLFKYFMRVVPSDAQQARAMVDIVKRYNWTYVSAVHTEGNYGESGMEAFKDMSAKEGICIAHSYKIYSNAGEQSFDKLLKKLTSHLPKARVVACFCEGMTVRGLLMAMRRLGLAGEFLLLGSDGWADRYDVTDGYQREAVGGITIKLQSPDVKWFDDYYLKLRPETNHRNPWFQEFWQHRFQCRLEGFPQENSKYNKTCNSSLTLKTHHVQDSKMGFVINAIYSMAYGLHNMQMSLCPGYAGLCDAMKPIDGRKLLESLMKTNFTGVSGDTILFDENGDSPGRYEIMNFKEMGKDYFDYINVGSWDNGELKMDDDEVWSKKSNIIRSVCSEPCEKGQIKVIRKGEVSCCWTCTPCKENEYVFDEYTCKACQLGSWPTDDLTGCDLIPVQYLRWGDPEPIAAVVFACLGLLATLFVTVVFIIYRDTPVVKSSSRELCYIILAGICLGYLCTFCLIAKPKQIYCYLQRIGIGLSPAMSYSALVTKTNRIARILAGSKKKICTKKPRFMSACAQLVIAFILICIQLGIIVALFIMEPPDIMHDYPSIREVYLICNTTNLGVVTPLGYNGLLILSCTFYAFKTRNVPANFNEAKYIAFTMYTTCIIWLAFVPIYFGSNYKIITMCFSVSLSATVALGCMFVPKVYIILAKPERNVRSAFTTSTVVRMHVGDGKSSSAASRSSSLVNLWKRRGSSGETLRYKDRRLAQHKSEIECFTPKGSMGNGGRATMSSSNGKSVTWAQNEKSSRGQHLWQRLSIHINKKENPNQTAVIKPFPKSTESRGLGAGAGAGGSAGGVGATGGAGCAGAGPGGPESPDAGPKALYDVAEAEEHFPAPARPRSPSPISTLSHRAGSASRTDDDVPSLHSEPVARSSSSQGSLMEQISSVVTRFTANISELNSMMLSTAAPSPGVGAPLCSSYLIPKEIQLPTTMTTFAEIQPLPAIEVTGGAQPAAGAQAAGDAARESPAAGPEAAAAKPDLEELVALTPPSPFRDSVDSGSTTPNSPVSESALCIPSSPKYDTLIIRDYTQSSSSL
pEC50: −log10 of the molar value.
This section presents compounds with their documented pEC50 values.

>  <compound>
Cc1ccc(-c2noc(C3CCc4c(nnn4C(C)(C)C)C3)n2)cn1 (racemic)

>  <target-desc>
Metabotropic glutamate receptor 5 (Homo sapiens)

>  <op>
=

>  <pEC50>
5.80

$$$$
>  <compound>
CN(C)c1ccc(-c2noc(C3CCc4c(nnn4C(C)(C)C)C3)n2)cc1 (racemic)

>  <target-desc>
Metabotropic glutamate receptor 5 (Homo sapiens)

>  <op>
=

>  <pEC50>
6.00

$$$$
>  <compound>
CC(C)(C#N)n1nnc2c1CCC(c1nc(-c3ccc(F)cc3)no1)C2 (stereo not drawn)

>  <target-desc>
Metabotropic glutamate receptor 5 (Homo sapiens)

>  <op>
=

>  <pEC50>
7.80

$$$$
>  <compound>
CC(C)(C)n1nnc2c1CCC(c1nc(-c3ccc(F)cc3)no1)C2 (stereo not drawn)

>  <target-desc>
Metabotropic glutamate receptor 5 (Homo sapiens)

>  <op>
=

>  <pEC50>
8.30

$$$$
>  <compound>
Fc1ccc(-c2noc(C3CCc4c(nnn4-c4ccc(F)cc4)C3)n2)cc1 (stereo not drawn)

>  <target-desc>
Metabotropic glutamate receptor 5 (Homo sapiens)

>  <op>
=

>  <pEC50>
7.80

$$$$
>  <compound>
CC(C)(C)n1nnc2c1CCC(c1nc(Cc3ccc(F)cc3)no1)C2 (stereo not drawn)

>  <target-desc>
Metabotropic glutamate receptor 5 (Homo sapiens)

>  <op>
=

>  <pEC50>
7.70

$$$$
>  <compound>
CC(C)(C)n1nnc2c1CCC(c1nc(C3CCCCC3)no1)C2 (racemic)

>  <target-desc>
Metabotropic glutamate receptor 5 (Homo sapiens)

>  <op>
=

>  <pEC50>
6.70

$$$$
>  <compound>
CC(C)(C)n1nnc2c1CCC(c1nc(N3CCOCC3)no1)C2 (racemic)

>  <target-desc>
Metabotropic glutamate receptor 5 (Homo sapiens)

>  <op>
=

>  <pEC50>
5.90

$$$$
>  <compound>
Fc1ccc(-c2nc(-c3ccc4c(c3)nnn4C3CCCC3)no2)cc1

>  <target-desc>
Metabotropic glutamate receptor 5 (Homo sapiens)

>  <op>
=

>  <pEC50>
6.40

$$$$
>  <compound>
Fc1ccc(-c2noc(C3CCc4c(nnn4-c4ccc(F)nc4)C3)n2)cc1 (stereo not drawn)

>  <target-desc>
Metabotropic glutamate receptor 5 (Homo sapiens)

>  <op>
<

>  <pEC50>
4.60

$$$$
>  <compound>
CC(C)(C)Cn1nnc2c1CCC(c1nc(-c3ccc(F)cc3)no1)C2 (stereo not drawn)

>  <target-desc>
Metabotropic glutamate receptor 5 (Homo sapiens)

>  <op>
=

>  <pEC50>
7.50

$$$$
>  <compound>
CC(C)Cc1noc(C2CCc3c(nnn3C(C)(C)C)C2)n1 (racemic)

>  <target-desc>
Metabotropic glutamate receptor 5 (Homo sapiens)

>  <op>
=

>  <pEC50>
6.00

$$$$
>  <compound>
CC1(n2nnc3c2CCC(c2nc(-c4ccc(F)cc4)no2)C3)CCOCC1 (stereo not drawn)

>  <target-desc>
Metabotropic glutamate receptor 5 (Homo sapiens)

>  <op>
=

>  <pEC50>
8.00

$$$$

====

Biological target: Metabotropic glutamate receptor 5 (Homo sapiens, UniProt P41594)
Assay: Positive allosteric modification of human recombinant mGlu5 receptor expressed in U2OS cells assessed as Ca2+ flux upto 25 uM relative to glutamate
Format: functional, cell-based
Sequence (P41594 21-1212 limits assumed): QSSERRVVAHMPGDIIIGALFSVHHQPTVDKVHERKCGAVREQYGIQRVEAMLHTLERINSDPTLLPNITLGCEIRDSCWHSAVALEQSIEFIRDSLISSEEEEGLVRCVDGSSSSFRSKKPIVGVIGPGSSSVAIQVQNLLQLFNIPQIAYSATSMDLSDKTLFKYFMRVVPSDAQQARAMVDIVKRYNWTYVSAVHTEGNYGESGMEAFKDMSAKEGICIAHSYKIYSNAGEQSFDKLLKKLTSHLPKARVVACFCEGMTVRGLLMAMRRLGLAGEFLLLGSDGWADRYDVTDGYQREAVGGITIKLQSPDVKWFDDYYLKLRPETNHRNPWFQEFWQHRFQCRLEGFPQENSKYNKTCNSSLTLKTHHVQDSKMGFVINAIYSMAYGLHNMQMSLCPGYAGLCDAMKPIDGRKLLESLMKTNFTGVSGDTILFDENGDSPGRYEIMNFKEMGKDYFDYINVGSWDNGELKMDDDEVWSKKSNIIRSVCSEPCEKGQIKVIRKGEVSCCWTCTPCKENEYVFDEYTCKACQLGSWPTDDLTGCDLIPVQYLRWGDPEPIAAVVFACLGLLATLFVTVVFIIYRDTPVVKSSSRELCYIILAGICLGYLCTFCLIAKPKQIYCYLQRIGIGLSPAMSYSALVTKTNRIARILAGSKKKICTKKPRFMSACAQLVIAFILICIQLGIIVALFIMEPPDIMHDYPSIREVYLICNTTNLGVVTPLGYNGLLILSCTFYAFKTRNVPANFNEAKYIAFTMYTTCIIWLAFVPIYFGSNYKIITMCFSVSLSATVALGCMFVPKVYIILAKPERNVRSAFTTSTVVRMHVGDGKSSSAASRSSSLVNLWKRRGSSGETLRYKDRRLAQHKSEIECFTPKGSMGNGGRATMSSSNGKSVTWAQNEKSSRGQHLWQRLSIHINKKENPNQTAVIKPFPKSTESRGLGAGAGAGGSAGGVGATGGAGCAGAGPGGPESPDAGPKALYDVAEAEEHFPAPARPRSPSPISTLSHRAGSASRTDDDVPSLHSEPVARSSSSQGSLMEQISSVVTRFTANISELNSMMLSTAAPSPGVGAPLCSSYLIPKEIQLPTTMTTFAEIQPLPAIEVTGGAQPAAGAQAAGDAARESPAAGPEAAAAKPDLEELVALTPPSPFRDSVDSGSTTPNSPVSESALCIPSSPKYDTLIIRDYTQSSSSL
This section presents compounds with their documented %max values.
value-type: %max (%)

>  <compound>
CC(C)(C)n1nnc2c1CCC(c1nnc(-c3ccc(F)cc3)o1)C2 (racemic)

>  <target-desc>
Metabotropic glutamate receptor 5 (Homo sapiens, UniProt P41594)

>  <value-type>
%max

>  <assay-value>
53

$$$$
>  <compound>
Cc1ccc(-c2noc(C3CCc4c(nnn4C(C)(C)C)C3)n2)cn1 (racemic)

>  <target-desc>
Metabotropic glutamate receptor 5 (Homo sapiens, UniProt P41594)

>  <value-type>
%max

>  <assay-value>
67

$$$$
>  <compound>
CC(C)(C#N)n1nnc2c1CCC(c1nc(-c3ccc(F)cc3)no1)C2 (configuration not stated)

>  <target-desc>
Metabotropic glutamate receptor 5 (Homo sapiens, UniProt P41594)

>  <value-type>
%max

>  <assay-value>
71

$$$$
>  <compound>
CC(C)n1nnc2c1CCC(c1nc(-c3ccc(F)cc3)no1)C2 (racemic)

>  <target-desc>
Metabotropic glutamate receptor 5 (Homo sapiens, UniProt P41594)

>  <value-type>
%max

>  <assay-value>
98

$$$$
>  <compound>
CC(C)(C)Cn1nnc2c1CCC(c1nc(-c3ccc(F)cc3)no1)C2 (configuration not stated)

>  <target-desc>
Metabotropic glutamate receptor 5 (Homo sapiens, UniProt P41594)

>  <value-type>
%max

>  <assay-value>
108

$$$$
>  <compound>
CC(C)(C)n1nnc2c1CCC(c1noc(-c3ccc(F)cc3)n1)C2 (configuration not stated)

>  <target-desc>
Metabotropic glutamate receptor 5 (Homo sapiens, UniProt P41594)

>  <value-type>
%max

>  <assay-value>
85

$$$$
>  <compound>
Fc1ccc(-c2noc(C3CCc4c(nnn4-c4ccc(F)cc4)C3)n2)cc1 (configuration not stated)

>  <target-desc>
Metabotropic glutamate receptor 5 (Homo sapiens, UniProt P41594)

>  <value-type>
%max

>  <assay-value>
106

$$$$
>  <compound>
CC(C)(C)n1nnc2c1CCC(c1nc(C3CCCCC3)no1)C2 (racemic)

>  <target-desc>
Metabotropic glutamate receptor 5 (Homo sapiens, UniProt P41594)

>  <value-type>
%max

>  <assay-value>
91

$$$$
>  <compound>
CN1CCC(n2nnc3c2CCC(c2nc(-c4ccc(F)cc4)no2)C3)CC1 (racemic)

>  <target-desc>
Metabotropic glutamate receptor 5 (Homo sapiens, UniProt P41594)

>  <value-type>
%max

>  <assay-value>
91

$$$$
>  <compound>
CN(C)c1ccc(-c2noc(C3CCc4c(nnn4C(C)(C)C)C3)n2)cc1 (racemic)

>  <target-desc>
Metabotropic glutamate receptor 5 (Homo sapiens, UniProt P41594)

>  <value-type>
%max

>  <assay-value>
68

$$$$
>  <compound>
Fc1ccc(-c2noc(C3CCc4c(nnn4C4CCOC4)C3)n2)cc1 (configuration not stated)

>  <target-desc>
Metabotropic glutamate receptor 5 (Homo sapiens, UniProt P41594)

>  <value-type>
%max

>  <assay-value>
96

$$$$
>  <compound>
Fc1ccc(-c2noc(C3CCc4c(nnn4C4CCCC4)C3)n2)cc1 (stereo in doubt; 10)

>  <target-desc>
Metabotropic glutamate receptor 5 (Homo sapiens, UniProt P41594)

>  <value-type>
%max

>  <assay-value>
78

$$$$
